system: HOP-62; assay: NCI tumour cell line growth inhibition, 48 h
The source made the active and inactive calls. Rule as the data show it: active = GI50 up to about 1.1 µM and inactive = higher.
parameter: GI50

In the examples that follow, each entry is paired with its recorded GI50.
molecule: Cc1nn(C)c2nc3ccc(Cl)cc3c(-c3ccccc3)c12
GI50: > 100 µM (inactive)

molecule: CCCC12Cc3c(OC)ccc(OC)c3CC(Cc3c(OC)ccc(OC)c31)C2=O (stereo not given)
GI50: > 100 µM (inactive)

molecule: O=C(CC1(O)C(=O)Nc2ccccc21)c1ccccc1O (stereo not given)
GI50: > 100 µM (inactive)

molecule: COC1/C=C\C=C(/C)C(=O)NC2=CC(=O)C(O)=C(CC(C)CC(OC)C(O)C(C)/C=C(\C)C1OC(N)=O)C2=O (stereo not given)
GI50: 13.7 µM (inactive)

Given the entry CC(C)(C)c1cc(C2COC(c3cc(C(C)(C)C)c(O)c(C(C)(C)C)c3)CO2)cc(C(C)(C)C)c1O (stereo not given) , what GI50 was observed with HOP-62?
> 100 µM (inactive)

====

tested on: OVCAR-4; experiment: NCI tumour cell line growth inhibition, 48 h
The source made the active and inactive calls. No stated cut-off is given here; in the data, active = GI50 up to about 1.1 µM and inactive = higher.
parameter: GI50

Below, each entry is followed by its recorded GI50 result.
compound: CNC(=O)OCC1=C(COC(=O)NC)C(C)N(c2ccccc2)C1 (stereo not given)
GI50: 37.8 µM (inactive)
--
compound: O=C(c1ccccc1)N1C(=S)N(c2ccccn2)C(=N/c2ccccc2)/C1=N\c1ccccc1
GI50: 10.5 µM (inactive)
--
compound: CC1(C)O[C@@H](CO)[C@H]([C@@]23OC[C@H]4OC(C)(C)OC4[C@@H]2OC(C)(C)O3)O1 (stereo not given in full)
GI50: > 100 µM (inactive)
--
compound: CC(=O)NCCCCCCNC(C)=O [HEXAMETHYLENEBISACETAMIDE]
GI50: 6550 µM (inactive)
--
compound: Cc1ccccc1-n1c(CCl)nc2ccc(Br)cc2c1=O
GI50: 14.8 µM (inactive)
--
compound: CCCc1ccc(OCC(=O)N/N=C/c2c(-c3ccccc3)[nH]c3ccccc23)cc1
GI50: 8.32 µM (inactive)
--
compound: Cc1cccc(C2ON=C(c3ccccc3)N2C23CC4CC(CC(C4)C2)C3)c1 (stereo not given)
GI50: > 10 µM (inactive)
--
compound: C=C(CN(C)C)C(=O)c1ccc(C(=O)C(=C)CN(C)C)cc1
GI50: > 100 µM (inactive)

What value of measured GI50 is listed for CCOC(=O)C[C@@H]1C2(C=C[C@@]13CO3)OCC(C)(C)CO2 ?
8.2 µM (inactive)

# get_value(readout='GI50', item= N=C(N)c1ccc(OCCCCCOc2ccc(C(=N)N)cc2)cc1 )
11.2 µM (inactive)

====

test system: A498; assay: NCI tumour cell line growth inhibition, 48 h
Active and inactive are the calls of the source. Rule as the data show it: active = GI50 up to about 1.1 µM and inactive = higher.
parameter: GI50

# count of solved cases: 3
molecule: CC(=O)Oc1cc2c(=O)oc3c(OC(C)=O)c(OC(C)=O)c(OC(C)=O)c4c(=O)oc(c1OC(C)=O)c2c34
parameter: GI50
reported_value: 65 µM (inactive)
//
molecule: COc1ccc2[nH]c3c(C)c4ccnc(NCCCN(C)CCCNC(=O)NCCCN(C)CCCNc5nccc6c(C)c7[nH]c8ccc(OC)cc8c7c(C)c56)c4c(C)c3c2c1
parameter: GI50
reported_value: 1.39 µM (inactive)
//
molecule: COC(=O)C(=C/c1ccc(OC)cc1)/C(C(=O)O)=C(/C)c1ccccc1
parameter: GI50
reported_value: > 100 µM (inactive)

--- query ---
Quick one: GI50 of CCCC12Cc3c(OC)ccc(OC)c3CC(Cc3c(OC)ccc(OC)c31)C2=O (centres undefined) ?
> 100 µM (inactive)
